Target: Estrone Sulfatase (Homo sapiens, UniProt P08842)
Construct: endogenous in cells; host or cells: MCF-7 human breast cancer cells (American Type Culture Collection)
Sequence (P08842 22-583): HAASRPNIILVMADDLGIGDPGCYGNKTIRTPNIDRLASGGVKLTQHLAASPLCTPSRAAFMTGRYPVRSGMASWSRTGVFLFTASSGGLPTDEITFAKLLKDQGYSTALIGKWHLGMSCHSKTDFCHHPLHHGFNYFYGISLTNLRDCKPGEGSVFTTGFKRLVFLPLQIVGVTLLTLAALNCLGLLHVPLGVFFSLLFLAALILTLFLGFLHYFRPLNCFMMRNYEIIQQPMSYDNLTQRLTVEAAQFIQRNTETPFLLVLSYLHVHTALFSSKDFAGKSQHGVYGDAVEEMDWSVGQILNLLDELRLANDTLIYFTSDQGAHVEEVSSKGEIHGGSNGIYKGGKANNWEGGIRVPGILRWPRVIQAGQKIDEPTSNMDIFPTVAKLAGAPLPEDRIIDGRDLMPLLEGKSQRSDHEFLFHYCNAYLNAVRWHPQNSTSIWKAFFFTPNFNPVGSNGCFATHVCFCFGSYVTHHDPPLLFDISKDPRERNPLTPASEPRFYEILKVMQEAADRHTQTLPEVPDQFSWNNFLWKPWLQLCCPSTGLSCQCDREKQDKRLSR
Test: Effects of Inhibitors on Estrone Sulfatase Activity in MCF-7 Cells
Type: cell-based
Settings: intact MCF-7 human breast cancer cells, 3H-estrone sulfate substrate, 24 h, 37° C.; read-out: Estrone Sulfatase Inhibitory Activity IC50
Recorded Metric: IC50 (nM)
Give bare numbers, in nM.

// known answers, use as guide
Asked: Give IC50 (Estrone Sulfatase (Homo sapiens, UniProt P08842)) of the following molecule: "CN(C)CCO[C@H]1CC[C@H]2[C@@H]3CCc4cc(OS(N)(=O)=O)ccc4[C@H]3CC[C@]12C"
Given back: 24

Asked: Give IC50 (Estrone Sulfatase (Homo sapiens, UniProt P08842)) of the following molecule: "COCc1cc2c(cc1OS(N)(=O)=O)CC[C@@H]1[C@@H]2CC[C@]2(C)C(=O)CC[C@@H]12"
Given back: 2

Asked: Give IC50 (Estrone Sulfatase (Homo sapiens, UniProt P08842)) of the following molecule: "CN(C)c1cc2c(cc1OS(N)(=O)=O)CC[C@@H]1[C@@H]2CC[C@]2(C)C(=O)CC[C@@H]12"
Given back: 270

Read the next record carefully.
Asked: Give IC50 (Estrone Sulfatase (Homo sapiens, UniProt P08842)) of the following molecule: "C#CC1=CC[C@H]2[C@@H]3CCc4cc(OS(N)(=O)=O)ccc4[C@H]3CC[C@]12C"
Given back: 0.25

====

Would you mind telling me the reported pIC50 of each entry?
Biological target: Estrone Sulfatase (Homo sapiens)
Construct: endogenous in cells; host or cells: MCF-7 human breast cancer cells (American Type Culture Collection)
Sequence (P08842 22-583): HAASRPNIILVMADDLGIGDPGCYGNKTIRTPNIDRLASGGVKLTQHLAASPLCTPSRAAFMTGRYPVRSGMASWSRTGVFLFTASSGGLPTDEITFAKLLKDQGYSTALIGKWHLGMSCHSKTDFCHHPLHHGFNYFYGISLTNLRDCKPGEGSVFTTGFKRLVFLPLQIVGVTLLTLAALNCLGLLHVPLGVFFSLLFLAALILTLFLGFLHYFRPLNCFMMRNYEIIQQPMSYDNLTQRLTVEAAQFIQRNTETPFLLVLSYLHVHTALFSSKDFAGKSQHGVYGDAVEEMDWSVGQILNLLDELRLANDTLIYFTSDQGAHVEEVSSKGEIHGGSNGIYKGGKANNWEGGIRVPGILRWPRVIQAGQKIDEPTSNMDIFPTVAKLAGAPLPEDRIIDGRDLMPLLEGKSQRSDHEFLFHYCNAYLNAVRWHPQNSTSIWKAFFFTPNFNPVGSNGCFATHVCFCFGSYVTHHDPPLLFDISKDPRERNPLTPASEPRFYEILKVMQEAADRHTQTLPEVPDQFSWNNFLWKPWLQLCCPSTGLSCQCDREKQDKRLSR
Test: Effects of Inhibitors on Estrone Sulfatase Activity in MCF-7 Cells
Format: cell-based
Settings: intact MCF-7 human breast cancer cells, 3H-estrone sulfate substrate, 24 h, 37° C.; read-out: Estrone Sulfatase Inhibitory Activity IC50
Protocol: A. Effects of Inhibitors on Estrone Sulfatase Activity in MCF-7 Cells Reagents: MCF-7 human breast cancer cell line was supplied by the American Type Culture Collection, Rockville, MD. […] Procedure: The method of Duncan et al., Cancer Res. 53:298-303 (1993) was employed. […] The amount of estrone sulfate hydrolyzed was calculated on the basis of ^3 H counts obtained, with the added ^14 C-estrone counts used to correct for recovery through the extraction procedure. […]
Give bare numbers, as −log10 of the molar value.

Asked: Requested read-out: pIC50. Entry: "CC(=O)O[C@H]1CC[C@H]2[C@@H]3CCc4cc(OS(N)(=O)=O)c(C#N)cc4[C@H]3CC[C@]12C"
Given back: 9.52

Read the next record carefully.
Asked: Requested read-out: pIC50. Entry: "CCCC[C@H]1CC[C@H]2[C@@H]3CCc4cc(OS(N)(=O)=O)ccc4[C@H]3CC[C@]12C"
Given back: 10.02

====

Would you mind telling me the reported log10 IC50 of each entry?
molecular target: Estrone Sulfatase (Homo sapiens, UniProt P08842); construct: endogenous in cells; host or cells: MCF-7 human breast cancer cells (American Type Culture Collection); experiment: Effects of Inhibitors on Estrone Sulfatase Activity in MCF-7 Cells; format: cell-based; conditions: intact MCF-7 human breast cancer cells, 3H-estrone sulfate substrate, 24 h, 37° C.; read-out: Estrone Sulfatase Inhibitory Activity IC50
Could you please treat all values as log10 of IC50 in nM?

Fill in log10 IC50 for each of the 7 compounds listed.
1. CC(=O)C1=CC[C@H]2[C@@H]3CCc4cc(OS(N)(=O)=O)ccc4[C@H]3CC[C@]12C
2. CN(C)CCCO[C@H]1CC[C@H]2[C@@H]3CCc4cc(OS(N)(=O)=O)ccc4[C@H]3CC[C@]12C
3. CN(C)c1c(OS(N)(=O)=O)ccc2c1CC[C@@H]1[C@@H]2CC[C@]2(C)C(=O)CC[C@@H]12
4. CC[C@H]1CC[C@H]2[C@@H]3CCc4cc(OS(N)(=O)=O)c(OC)cc4[C@H]3CC[C@]12C
5. CCC[C@H]1CC[C@H]2[C@@H]3CCc4cc(OS(N)(=O)=O)ccc4[C@H]3CC[C@]12C
6. CC[C@H]1CC[C@H]2[C@@H]3CCc4cc(OS(N)(=O)=O)ccc4[C@H]3CC[C@]12C
7. CC/C=C1\CC[C@H]2[C@@H]3CCc4cc(OS(N)(=O)=O)ccc4[C@H]3CC[C@]12C

Given back:
1: -1.68; 2: 1.36; 3: 2.71; 4: 0.18; 5: -1.47; 6: -1.70; 7: -1.57

====

target: Estrone Sulfatase (Homo sapiens); construct: endogenous in cells; host or cells: MCF-7 human breast cancer cells (American Type Culture Collection); experiment: Effects of Inhibitors on Estrone Sulfatase Activity in MCF-7 Cells; format: cell-based; conditions: intact MCF-7 human breast cancer cells, 3H-estrone sulfate substrate, 24 h, 37° C.; read-out: Estrone Sulfatase Inhibitory Activity IC50
Would you mind telling me the reported pIC50 of each entry?
Numbers only, as −log10 of the molar value.

Asked: Requested read-out: pIC50. Entry: "CN(C)CCO[C@@H]1CC[C@H]2[C@@H]3CCc4cc(OS(N)(=O)=O)ccc4[C@H]3CC[C@]12C"
Given back: 7.59

Asked: Requested read-out: pIC50. Entry: "CC(=O)Nc1cc2c(cc1OS(N)(=O)=O)CC[C@@H]1[C@@H]2CC[C@]2(C)C(=O)CC[C@@H]12"
Given back: 6.39

Asked: Requested read-out: pIC50. Entry: "CCOC(=O)/C=C1\CC[C@H]2[C@@H]3CCc4cc(OS(N)(=O)=O)ccc4[C@H]3CC[C@]12C"
Given back: 9.57

Asked: Requested read-out: pIC50. Entry: "CC(=O)[C@H]1CC[C@H]2[C@@H]3CCc4cc(OS(N)(=O)=O)ccc4[C@H]3CC[C@]12C"
Given back: 8.70

Asked: Requested read-out: pIC50. Entry: "C[C@]12CC[C@@H]3c4ccc(OS(N)(=O)=O)cc4CC[C@H]3[C@@H]1CCC2=C(C#N)C#N"
Given back: 10.05

Read the next record carefully.
Asked: Requested read-out: pIC50. Entry: "C/C=C1/CC[C@H]2[C@@H]3CCc4cc(OS(N)(=O)=O)c(OC)cc4[C@H]3CC[C@]12C"
Given back: 8.60

====

Would you mind telling me the reported pIC50 of each entry?
biological target: Estrone Sulfatase (Homo sapiens); construct: endogenous in cells; host or cells: MCF-7 human breast cancer cells (American Type Culture Collection); assay: Effects of Inhibitors on Estrone Sulfatase Activity in MCF-7 Cells; assay type: cell-based; conditions: intact MCF-7 human breast cancer cells, 3H-estrone sulfate substrate, 24 h, 37° C.; read-out: Estrone Sulfatase Inhibitory Activity IC50
Numbers only, as −log10 of the molar value.

// known answers, use as guide
Asked: Give pIC50 (Estrone Sulfatase (Homo sapiens)) of the following compound: "CCC/C=C1/CC[C@H]2[C@@H]3CCc4cc(OS(N)(=O)=O)ccc4[C@H]3CC[C@]12C"
Given back: 10.96

Asked: Give pIC50 (Estrone Sulfatase (Homo sapiens)) of the following compound: "C/C=C1/CC[C@H]2[C@@H]3CCc4cc(OS(N)(=O)=O)ccc4[C@H]3CC[C@]12C"
Given back: 10.10

Asked: Give pIC50 (Estrone Sulfatase (Homo sapiens)) of the following compound: "CC/C=C1/CC[C@H]2[C@@H]3CCc4cc(OS(N)(=O)=O)ccc4[C@H]3CC[C@]12C"
Given back: 10.42

Asked: Give pIC50 (Estrone Sulfatase (Homo sapiens)) of the following compound: "CC(=O)Nc1c(OS(N)(=O)=O)ccc2c1CC[C@@H]1[C@@H]2CC[C@]2(C)C(=O)CC[C@@H]12"
Given back: 6.54

Asked: Give pIC50 (Estrone Sulfatase (Homo sapiens)) of the following compound: CC12CC(=O)C3=Cc4ccc(OS(N)(=O)=O)cc4CCC3C1CCC2=O (stereo not shown)
Given back: 7.59

Fill in pIC50 for each of the 2 compounds listed.
1. CN(C)CCOC/C=C1\CC[C@H]2[C@@H]3CCc4cc(OS(N)(=O)=O)ccc4[C@H]3CC[C@]12C
2. CCOC(=O)/C=C1/CC[C@H]2[C@@H]3CCc4cc(OS(N)(=O)=O)ccc4[C@H]3CC[C@]12C

Given back:
1: 7.47; 2: 8.57
